The reader will find reported pest or weed control at 100 ppm values listed item by item below.
test system: Mycosphaerella graminicola; Anamorph: Septoria tritici; experiment: Leaf blotch of wheat (SEPTTR) fungicidal activity on wheat seedlings; type: in vivo; details: Zymoseptoria tritici, 24 h, 1 Day Protectant, read-out: Disease Control SEPTTR 1 DP

Molecule | pest or weed control at 100 ppm
COc1ccnc(C(=O)N[C@H]2COC[C@H](Cc3ccccc3)[C@@H](OCCC(C)OC)[C@H](C)OC2=O)c1OCOC(C)=O (stereo partly drawn) | 80 to 100%

Summary line: `COC(=O)CCO[C@@H]1[C@@H](Cc2ccccc2)COC[C@H](NC(=O)c2nccc(OC)c2O)C(=O)O[C@H]1C` , Mycosphaerella graminicola; Anamorph: Septoria tritici, reported pest or weed control at 100 ppm = 0 to 80%

Summary line: `COc1ccnc(C(=O)N[C@H]2COC[C@H](Cc3ccccc3)[C@@H](OC/C=C/C(F)(F)F)[C@H](C)OC2=O)c1O` , Mycosphaerella graminicola; Anamorph: Septoria tritici, reported pest or weed control at 100 ppm = 0 to 80%

---

The reader will find reported pest or weed control at 100 ppm values listed item by item below.
system: Mycosphaerella graminicola; Anamorph: Septoria tritici; assay: Leaf blotch of wheat (SEPTTR) fungicidal activity on wheat seedlings; type: in vivo; details: Zymoseptoria tritici, 72 h, 3 Day Curative, read-out: Disease Control SEPTTR 3 DC

Sample `COC(=O)CCO[C@@H]1[C@@H](Cc2ccccc2)COC[C@H](NC(=O)c2nccc(OC)c2O)C(=O)O[C@H]1C` ; pest or weed control at 100 ppm observed: 0 to 80%

Sample `COc1ccnc(C(=O)N[C@H]2COC[C@H](Cc3ccccc3)[C@@H](OC)[C@H](C)OC2=O)c1O` ; pest or weed control at 100 ppm observed: 80 to 100%

Sample `COc1ccnc(C(=O)N[C@H]2COC[C@H](Cc3ccccc3)[C@@H](OCCC(=O)N(C)C)[C@H](C)OC2=O)c1O` ; pest or weed control at 100 ppm observed: 0 to 80%

Sample `COC(=O)CCO[C@@H]1[C@@H](Cc2ccccc2)COC[C@H](NC(=O)c2nccc(OC)c2OCOC(C)=O)C(=O)O[C@H]1C` ; pest or weed control at 100 ppm observed: 0 to 80%

Sample `COc1ccnc(C(=O)N[C@H]2COC[C@H](Cc3ccccc3)[C@@H](OC(=O)c3ccccc3)[C@H](C)OC2=O)c1O` ; pest or weed control at 100 ppm observed: 0 to 80%

Sample `COc1ccnc(C(=O)N[C@H]2COC[C@H](Cc3ccccc3)[C@@H](OCCCC(F)(F)F)[C@H](C)OC2=O)c1OCOC(C)=O` ; pest or weed control at 100 ppm observed: 80 to 100%

---

The reader will find reported pest or weed control at 100 ppm values listed item by item below.
test system: Mycosphaerella graminicola; Anamorph: Septoria tritici; test: Leaf blotch of wheat (SEPTTR) fungicidal activity on wheat seedlings; assay type: in vivo; details: Zymoseptoria tritici, 72 h, 3 Day Curative, read-out: Disease Control SEPTTR 3 DC

Compound | pest or weed control at 100 ppm
COc1ccnc(C(=O)N[C@H]2COC[C@H](Cc3ccccc3)[C@@H](OC/C=C/C(F)(F)F)[C@H](C)OC2=O)c1OCOC(C)=O [Compound 25] | 80 to 100%
CCCC(C)O[C@@H]1[C@@H](Cc2ccccc2)COC[C@H](NC(=O)c2nccc(OC)c2OCOC(C)=O)C(=O)O[C@H]1C (stereo partly shown) [Compound 24] | 80 to 100%
CCCO[C@@H]1[C@@H](Cc2ccccc2)COC[C@H](NC(=O)c2nccc(OC)c2OCOC(C)=O)C(=O)O[C@H]1C [Compound 22] | 80 to 100%
COc1ccnc(C(=O)N[C@H]2COC[C@H](Cc3ccccc3)[C@@H](OCCCc3ccccc3)[C@H](C)OC2=O)c1O [Compound 28] | 0 to 80%
COc1ccnc(C(=O)N[C@H]2COC[C@H](Cc3ccccc3)[C@@H](OC(=O)c3ccccc3)[C@H](C)OC2=O)c1OCOC(C)=O [Compound 37] | 80 to 100%

Sample COc1ccnc(C(=O)N[C@H]2COC[C@H](Cc3ccccc3)[C@@H](OCC(C)C)[C@H](C)OC2=O)c1OCOC(C)=O [Compound 8] ; pest or weed control at 100 ppm observed: 80 to 100%

Sample COc1ccnc(C(=O)N[C@H]2COC[C@H](Cc3ccccc3)[C@@H](OCCC(C)C)[C@H](C)OC2=O)c1OCOC(C)=O [Compound 42] ; pest or weed control at 100 ppm observed: 80 to 100%

Sample COc1ccnc(C(=O)N[C@H]2COC[C@H](Cc3ccccc3)[C@@H](OCC(C)C)[C@H](C)OC2=O)c1OC(C)=O [Compound 9] ; pest or weed control at 100 ppm observed: 80 to 100%

Sample COc1ccnc(C(=O)N[C@H]2COC[C@H](Cc3ccccc3)[C@@H](OC3CCCC3)[C@H](C)OC2=O)c1OCOC(=O)C(C)C [Compound 108] ; pest or weed control at 100 ppm observed: 0 to 80%

Sample COc1ccnc(C(=O)N[C@H]2COC[C@H](Cc3ccccc3)[C@@H](OC)[C@H](C)OC2=O)c1OCOC(C)=O [Compound 39] ; pest or weed control at 100 ppm observed: 80 to 100%

Sample COc1ccnc(C(=O)N[C@H]2COC[C@H](Cc3ccccc3)[C@@H](OCC(F)F)[C@H](C)OC2=O)c1O [Compound 43] ; pest or weed control at 100 ppm observed: 80 to 100%

Sample COc1ccnc(C(=O)N[C@H]2COC[C@H](Cc3ccccc3)[C@@H](OCC(C)C)[C@H](C)OC2=O)c1OC(=O)OC(C)C [Compound 10] ; pest or weed control at 100 ppm observed: 80 to 100%

Sample COc1ccnc(C(=O)N[C@H]2COC[C@H](CC3CCCCC3)[C@@H](OCC(C)C)[C@H](C)OC2=O)c1O [Compound 4] ; pest or weed control at 100 ppm observed: 80 to 100%
